test system: A549; experiment: Antiproliferative activity against human A549 cells assessed as reduction in cell viability by MTT assay; assay type: functional, cell-based
In this section, each of the compounds is paired with its reported IC50.

- Smi: "Cn1c(=O)c(=O)n(C2CCCC2)c2nc(N/N=C/c3ccc(O)cc3)ncc21"
  IC50: "> 100 µM"
- Smi: "Cn1c(=O)c(=O)n(C2CCCC2)c2nc(N/N=C/c3ccco3)ncc21"
  IC50: "> 100 µM"
- Smi: "COc1ccc(/C=N/Nc2ncc3c(n2)n(C2CCCC2)c(=O)c(=O)n3C)c(OC)c1"
  IC50: "> 100 µM"
- Smi: "Cn1c(=O)c(=O)n(C2CCCC2)c2nc(N/N=C/c3cccs3)ncc21"
  IC50: "> 100 µM"
- Smi: "COc1ccc(/C=N/Nc2ncc3c(n2)n(C2CCCC2)c(=O)c(=O)n3C)cc1"
  IC50: "> 100 µM"
- Smi: "Cn1c(=O)c(=O)n(C2CCCC2)c2nc(N/N=C/c3ccccc3)ncc21"
  IC50: "> 100 µM"
- Smi: "Cn1c(=O)c(=O)n(C2CCCC2)c2nc(N/N=C/c3cccc(O)c3)ncc21"
  IC50: "> 100 µM"
